Attribution: patent US8648066B2

TARGET_OF_ASSAY: mTOR/GbL/Raptor (mTORC1) (Homo sapiens)
ASSAY_NAME: mTOR/GbL/Raptor (mTORC1) ELISA assay
CONDITIONS_USED: phosphorylation of 4E-BP1; 0.2 nM mTORC1, 10 μM ATP; read-out: IC50 in this assay (mTORC1 ELISA)
Assignment: determine reported IC50 for the given compounds.

Cc1nc2ccc(-c3ccc4c(c3)CN(c3ncnc(C)c3Cc3cccc(Cl)c3)CCO4)cc2[nH]1    ≤ 0.01 µM

Respectfully, I request IC50 for each entry included below.
1. Cc1ncnc(N2CCOc3ccc(-c4ccc5nc(N)nn5c4)cc3C2)c1Cc1ccc(F)cc1
2. Cc1ncnc(N2CCOc3ccc(-c4ccc5nc(N)ncc5c4)cc3C2)c1Cc1ccc(F)cc1
3. Cc1ncnc(N2CCOc3ccc(-c4ccc5nc(N)[nH]c5n4)cc3C2)c1Cc1ccc(F)cc1
4. CC1(C)CCc2ncnc(N3CCOc4ccc(-c5cnc(N)c(S(N)(=O)=O)c5)cc4C3)c2C1

Return:
1. 0.01 to 0.05 µM
2. 0.01 to 0.05 µM
3. 0.01 to 0.05 µM
4. ≤ 0.01 µM
